Values from PubChem BioAssay (NCI)

Tested on: EKVX NSCLC
Experiment: NCI tumour cell line growth inhibition, 48 h
Consider the following compounds and their measured TGI readings.
Reply numerically in µM, unit not repeated.

Before answering, review these 3 worked examples.
Cc1c2cnccc2c(C)c2c1c1cc(C#N)ccc1n2C; 0.624
Cc1ccc(C)c(NC(=O)C(=O)C(C(=O)c2ccc3ccccc3c2)C2OC(=O)c3ccccc32)c1 (centres undefined); 51.1
CC1CC[C@@]2(OC1)OC1C[C@H]3[C@@H]4CC=C5CC(OC6OC(CO)C(OC7OC(CO)C(O)C(OC8OCC(O)C(O)C8O)C7OC7OC(CO)C(OC8OC(C)C(OC9OC(C)C(O)C(O)C9O)C(O)C8O)C(O)C7O)C(O)C6O)CCC5(C)[C@H]4CCC3(C)C1[C@@H]2C (some centres undefined); 15.3

Next compound, TGI to be filled in.
// returns reported TGI for input c1ccc(-c2csc3c4ccccc4c4ccccc4[n+]23)cc1
31.8
